Biological target: Triosephosphate isomerase (G233D HsTIM) (Homo sapiens, UniProt P60174, G233D)
Sequence (P60174 2-249 G233D): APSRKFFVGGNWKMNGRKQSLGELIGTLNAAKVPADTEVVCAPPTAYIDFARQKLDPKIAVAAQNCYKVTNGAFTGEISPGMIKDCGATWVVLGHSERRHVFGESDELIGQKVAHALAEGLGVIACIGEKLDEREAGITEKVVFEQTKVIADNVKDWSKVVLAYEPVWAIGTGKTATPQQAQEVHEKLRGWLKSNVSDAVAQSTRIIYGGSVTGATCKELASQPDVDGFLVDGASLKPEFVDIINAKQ
Test: coupled enzyme assay, Kmapp vs PEP at varied GAP
property_measured: pKi
A value of pKi is the negative decimal logarithm of a concentration given in moles per litre.

pKi reading for C=C(OP(=O)(O)O)C(=O)O [phosphoenolpyruvate] : 3.92
